- measurement_notes: Toxicity liver stage against HepG2, at 10uM
- Format: cell-based
- Parameters: test concentration 10 uM, cell line HepG2-A16-CD81EGFP
- test_settings: human, HepG2-A16-CD81EGFP cells; read-out: INHIBITION
Consider the following compounds; for each one, report its cytotoxicity at 10 µM.
A number alone suffices; assume %.

Ask: If you can, please state the reported cytotoxicity at 10 µM value of CCOc1cc(C(=O)N2CCCC2)cc2occc12 .
Result: 8.52

Ask: If you can, please state the reported cytotoxicity at 10 µM value of CC(=O)N1CCN(C(=O)CNc2cccc(OC(F)F)c2C)CC1 .
Result: -11.4

Ask: If you can, please state the reported cytotoxicity at 10 µM value of COc1nccc(N2CCN(Cc3ccc(C)cc3)C(=O)C2)c1C#N .
Result: -16.5

Ask: If you can, please state the reported cytotoxicity at 10 µM value of CC(c1ccc(Br)cc1)N1CCCN(C(N)=O)CC1 (stereo unspecified) .
Result: 2.1

Ask: If you can, please state the reported cytotoxicity at 10 µM value of CCc1nnc2n1CCN(C(=O)CCOc1ccc(C)cc1C)C2 .
Result: 2.93

Ask: If you can, please state the reported cytotoxicity at 10 µM value of CCN(Cc1cccc(Cl)c1)Cc1nc2c(cnn2C)c(=O)[nH]1 .
Result: 1.01

Ask: If you can, please state the reported cytotoxicity at 10 µM value of CN1CCCN(c2cnn(Cc3ccc(C(C)(C)C)cc3)c(=O)c2)CC1 .
Result: 11.1

Ask: If you can, please state the reported cytotoxicity at 10 µM value of CCC(Nc1nnnn1-c1ccccc1)C(=O)NCc1ccsc1 (stereo unspecified) .
Result: -3.56

Ask: If you can, please state the reported cytotoxicity at 10 µM value of O=C(Cc1ccsc1)N1C[C@@H]2OCCN(CC3CCCO3)[C@@H]2C1 (stereo partly specified) .
Result: -4.42

Ask: If you can, please state the reported cytotoxicity at 10 µM value of Cc1nc(C(=O)N2CCCC(c3nc(C(C)C)cs3)C2)c[nH]1 (stereo unspecified) .
Result: -41.7

Ask: If you can, please state the reported cytotoxicity at 10 µM value of Cc1cnn(CCC(=O)N2C[C@@H]3CC[C@H]2CN(CC(=O)N(C)C)C3)c1 .
Result: -10

* * *

- measurement_notes: Toxicity liver stage against HepG2, at 10uM
- Format: cell-based
- Parameters: test concentration 10 uM, cell line HepG2-A16-CD81EGFP
- test_settings: human, HepG2-A16-CD81EGFP cells; read-out: INHIBITION
measure: cytotoxicity at 10 µM (%)
A number alone suffices; assume %.

Ask: If you can, please state the reported cytotoxicity at 10 µM value of COc1cccc2c1OCCCN(c1nc(N)nc3c1CCNC3)C2 .
Result: 0.944

Ask: If you can, please state the reported cytotoxicity at 10 µM value of CC(C)CN1CCN(C(=O)c2ccncc2F)Cc2cccnc21 .
Result: 1.71

Ask: If you can, please state the reported cytotoxicity at 10 µM value of Cc1ccc(CN2CC[C@@H]3OCCN(Cc4ccncc4)[C@H]3CC2)s1 .
Result: 6.84

Ask: If you can, please state the reported cytotoxicity at 10 µM value of COCCCNC(=O)c1cc(C(C)C)nc(N2CCCC2)n1 .
Result: 6.5

Ask: If you can, please state the reported cytotoxicity at 10 µM value of CCn1nc(C)c(CNC(=O)NCC(C)(O)c2ccccc2)c1C (configuration not stated) .
Result: -7.12

Ask: If you can, please state the reported cytotoxicity at 10 µM value of CNC(C(=O)OC)c1cc(F)ccc1F (configuration not stated) .
Result: -1.07

Ask: If you can, please state the reported cytotoxicity at 10 µM value of CC1(C)OCC2(CO1)CN(S(=O)(=O)c1ccc(Cl)s1)C2 .
Result: -0.295

Ask: If you can, please state the reported cytotoxicity at 10 µM value of CC(C)C1CN(C(=O)Nc2cnn(CC(F)F)c2)CCS1 (configuration not stated) .
Result: 12.6

Ask: If you can, please state the reported cytotoxicity at 10 µM value of CCCc1ccc2oc(C(=O)N3CCCN(C)CC3)c(C)c2c1 .
Result: -8.3

Ask: If you can, please state the reported cytotoxicity at 10 µM value of Cc1cccc2nc(CN3CCCC3Cn3cncn3)cn12 (configuration not stated) .
Result: -6.97

Ask: If you can, please state the reported cytotoxicity at 10 µM value of CN1CCC(NC(=O)CC2CN(Cc3ccccc3)CCO2)CC1 (configuration not stated) .
Result: -22.2

Ask: If you can, please state the reported cytotoxicity at 10 µM value of Cc1ccc(F)cc1NS(=O)(=O)c1cc2c(c(C(=O)O)c1)OCCO2 .
Result: -3.88
